Test system: Cyperus serotinus, Rottb.
Assay text: Preemergence weed control under flooded paddy conditions, CYPSE (Flatsedge); note: meaning of each grade not given here
Assay type: in vivo
Experimental context: 0.1250 kg/ha, preemergence, rated three to four weeks after treatment
Parameter herbicidal effect rating, CYPSE: see the listing below.
Reply with the value as a number alone.

Previously resolved entries follow.
[[record]]
compound = "COc1noc2ccc(-n3c(=O)cc(C(F)(F)F)n(C)c3=O)cc12 [Example 42]"
measurement = 0.0

[[record]]
compound = "COC(=O)C(C)Oc1cc(C)c(C)cc1-c1nsc2ccc(-n3c(=O)cc(C(F)(F)F)n(C)c3=O)cc12 (centres unmarked) [Example 13]"
measurement = 7.0


# input Requested field: herbicidal effect rating, CYPSE. Item: CSCc1nsc2ccc(-n3c(=O)cc(C(F)(F)F)n(C)c3=O)cc12 [Example 21]
# output 0.0

# input Requested field: herbicidal effect rating, CYPSE. Item: C=CCOC(=O)COc1ccc(C)cc1-c1nsc2ccc(-n3c(=O)cc(C(F)(F)F)n(C)c3=O)cc12 [Example 69]
# output 2.0

# input Requested field: herbicidal effect rating, CYPSE. Item: Cc1ccc(OC(C)C#N)c(-c2nsc3ccc(-n4c(=O)cc(C(F)(F)F)n(C)c4=O)cc23)c1 (centres unmarked) [Example 58]
# output 0.0

# input Requested field: herbicidal effect rating, CYPSE. Item: Cc1noc2cc(F)c(-n3c(=O)cc(C(F)(F)F)n(C)c3=O)cc12 [Example 23]
# output 8.0

# input Requested field: herbicidal effect rating, CYPSE. Item: COC(=O)C(C)Oc1ccc(C)cc1-c1nsc2ccc(-n3c(=S)cc(C(F)(F)F)n(C)c3=O)cc12 (centres unmarked) [Example 33]
# output 0.0

# input Requested field: herbicidal effect rating, CYPSE. Item: Cc1ccc(OCC(=O)N(C(C)C)C(C)C)c(-c2nsc3ccc(-n4c(=O)cc(C(F)(F)F)n(C)c4=O)cc23)c1 [Example 61]
# output 0.0

# input Requested field: herbicidal effect rating, CYPSE. Item: COC(=O)COc1ccc(C)cc1-c1nsc2ccc(-n3c(=O)cc(C(F)(F)F)n(C)c3=O)cc12 [Example 2]
# output 0.0

# input Requested field: herbicidal effect rating, CYPSE. Item: Cc1ccc(OCC#N)c(-c2nsc3ccc(-n4c(=O)cc(C(F)(F)F)n(C)c4=O)cc23)c1 [Example 57]
# output 0.0

# input Requested field: herbicidal effect rating, CYPSE. Item: CCc1ccc(OC)c(-c2nsc3ccc(-n4c(=O)cc(C(F)(F)F)n(C)c4=O)cc23)c1 [Example 45]
# output 9.0

Entry source: patent EP0908457B1
